Biological target: NADPH oxidase 4 (Homo sapiens) (UniProt Q9NPH5)
Sequence (Q9NPH5 whole entry, looked up): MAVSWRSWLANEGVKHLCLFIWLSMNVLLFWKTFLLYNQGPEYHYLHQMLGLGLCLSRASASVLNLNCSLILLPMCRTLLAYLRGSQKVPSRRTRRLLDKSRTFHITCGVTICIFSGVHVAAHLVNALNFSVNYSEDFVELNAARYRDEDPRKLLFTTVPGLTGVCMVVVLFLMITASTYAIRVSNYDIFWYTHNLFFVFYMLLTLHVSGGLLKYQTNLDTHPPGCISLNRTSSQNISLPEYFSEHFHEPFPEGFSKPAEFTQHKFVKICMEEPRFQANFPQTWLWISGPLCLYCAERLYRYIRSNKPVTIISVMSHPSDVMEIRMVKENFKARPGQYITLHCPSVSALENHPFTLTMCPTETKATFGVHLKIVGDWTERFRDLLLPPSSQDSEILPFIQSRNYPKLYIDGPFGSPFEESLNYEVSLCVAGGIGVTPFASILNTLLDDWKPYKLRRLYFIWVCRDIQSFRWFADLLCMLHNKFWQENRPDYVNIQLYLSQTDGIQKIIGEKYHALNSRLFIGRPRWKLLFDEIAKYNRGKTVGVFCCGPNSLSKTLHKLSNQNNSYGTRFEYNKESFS
Test: NOX4-dependent H2O2 signal modulators, primary screen, NOX inhibitor project, cell-based, HEK293-NOX4, tetracycline-induced, Amplex Red fluorescence (AID 1160)
Conditions: 45 min, higher = more signal, called active from +8 up or from −8 down
READOUT TYPE: z-score
Enter the number alone.

Query: Endpoint output: z-score of O=C1OCC=C[C@H]2OC34C=CCN(CCN5CCOCC5)C(=O)[C@H]3N(CCCO)C(=O)[C@@H]4[C@@H]12 (some centres undefined) . Value?
Result: -1.16

Query: Endpoint output: z-score of C[C@@H]1ON(c2cccc(C(=O)OC(C)(C)C)c2)[C@H](c2ccc(Br)cc2)[C@H]1C(=O)N1C(=O)OC[C@H]1Cc1ccccc1 . Value?
Result: -0.079

Query: Endpoint output: z-score of O=C1NC(=O)C2C1C=CC(C(O)Cc1ccccc1)N2Nc1ccc(Cl)cc1Cl (centres undefined) . Value?
Result: -5.02

Query: Endpoint output: z-score of O=C1OCCC/C=C\[C@H]2OC34C=CCN(c5ccc6ccccc6c5)C(=O)[C@H]3N(CCCCCCO)C(=O)[C@@H]4C12 (some centres undefined) . Value?
Result: 0.341

* * *

Assay: E. coli acrAB mutant growth effects, primary screen, E. coli filamentation inducers, strain DRC39, OD650, 24 h (AID 1178);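 further: growth measured as culture turbidity by optical density at 650 nm; test concentration not given here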
Conditions: higher = more signal, called active from +8 up or from −8 down
Given measured z-score, output Satisfied if it is greater than or equal to 0.1 and Not satisfied if not.

Query: Textbook exercise: given the entry COCCOC(=O)N1C(=O)[C@@]2(c3cc(C#CC4=CCCCC4)ccc31)[C@H](C(=O)N1CCc3cc(OC)c(OC)cc3C1)[C@H]1C(=O)O[C@H](c3ccccc3)[C@H](c3ccccc3)N1[C@@H]2c1ccc(OCCO)cc1 , state whether its z-score is greater than or equal to 0.1.
Result: Satisfied

Query: Textbook exercise: given the entry COc1ccc(CCNC(=O)[C@@H]2c3ccccc3C(=O)N(C3Cc4ccccc4C3)[C@H]2c2ccc(CO)cc2)cc1 , state whether its z-score is greater than or equal to 0.1.
Result: Not satisfied

Query: Textbook exercise: given the entry COCCOC(=O)N1C(=O)[C@@]2(c3cc(C#Cc4ccc(OC)cc4)ccc31)[C@H](c1ccccc1OCCO)N1[C@H](c3ccccc3)[C@H](c3ccccc3)OC(=O)[C@H]1[C@@H]2C(=O)N1CCN(c2ncccn2)CC1 , state whether its z-score is greater than or equal to 0.1.
Result: Not satisfied

Query: Textbook exercise: given the entry C=CCC(OC(C)=O)[C@@H]1[C@@H](N(Cc2ccc(-c3cccc(C(F)(F)F)c3)o2)C(=O)Cc2ccc(F)cc2)c2cc(OCCCO)ccc2N1C(=O)Cc1ccc(OC)cc1 (stereo not given in full) , state whether its z-score is greater than or equal to 0.1.
Result: Satisfied

Query: Textbook exercise: given the entry CO[C@H]1O[C@H](CO)[C@@H](OC(=O)Nc2ccc(Br)cc2)[C@H](OC(=O)c2cc3ccccc3[nH]2)[C@H]1OC(=O)c1cc2ccccc2[nH]1 , state whether its z-score is greater than or equal to 0.1.
Result: Satisfied

* * *

Assay: compound binding in COS7 lysate, probe aLAP1, primary screen, cell lysate, small-molecule microarray (AID 1124);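 further: lysate comes from COS7 cells expressing LAP1 and is applied at 0.3 µg/mL; score merges spot fluorescence near 667 nm with signal-to-noise over triplicate slides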
Details: probe aLAP1, fluorescence, higher = more signal
Given measured composite z-score, output Met if it is greater than or equal to 0.5 and Not met if not.

Query: Textbook exercise: given the entry COc1ccc([C@H]2C[C@H]3C(Br)=C[C@@H]2C(=O)[C@]32CO2)cc1 , state whether its composite z-score is greater than or equal to 0.5.
Result: Not met

Query: Textbook exercise: given the entry CC(CO)N1C(=O)[C@@H]2C3C(=O)OCCC/C=C\[C@H]3OC23C=CCN(c2ccc4ccccc4c2)C(=O)[C@@H]13 (some centres not stated) , state whether its composite z-score is greater than or equal to 0.5.
Result: Not met

Query: Textbook exercise: given the entry C#CCNC(=O)[C@H](Cc1ccccc1)NC(=O)CCC(=O)O , state whether its composite z-score is greater than or equal to 0.5.
Result: Not met

Query: Textbook exercise: given the entry [N-]=[N+]=NCc1ccccc1C[C@]1(C(=O)O)N=C(c2ccc(OCCCO)cc2)O[C@H]1c1ccccc1N=[N+]=[N-] , state whether its composite z-score is greater than or equal to 0.5.
Result: Met

Query: Textbook exercise: given the entry COc1ccc(CCNC(=O)[C@@]2(Sc3ccc(C)cc3)CC(=O)N(C3CCCCC3)[C@@H]2c2ccc(CO)cc2I)cc1 , state whether its composite z-score is greater than or equal to 0.5.
Result: Not met

Query: Textbook exercise: given the entry C=CCOC(=O)[C@H]1[C@@H]2C(=O)O[C@@H](c3ccccc3)[C@@H](c3ccccc3)N2[C@@H](c2ccc(OCCOC(=O)[C@H]3C[C@H]4C(=O)N[C@@H](CC(C)C)C(=O)N4[C@H]3c3ccc(O)cc3)cc2)[C@]12C(=O)Nc1ccc(I)cc12 , state whether its composite z-score is greater than or equal to 0.5.
Result: Met

Query: Textbook exercise: given the entry COc1ccc(CCNC(=O)[C@@]2(C)c3ccccc3C(=O)N(Cc3cc(F)cc(C(F)(F)F)c3)[C@H]2c2ccc(CO)cc2)cc1 , state whether its composite z-score is greater than or equal to 0.5.
Result: Met
